Consider the following molecules; for each one, report its cell viability.
Tested on: SEM cells
Assay: cell viability relative to DMSO control; higher = less cytotoxic
Settings: RPMI 5 mM glucose + 10% dialyzed FBS; 48 h; 5.12 µM
Give bare numbers, in %.

Worked cases, cell viability given:
>>> df
                                   molecule  assayed_system  observed_property  readout_value
0        NC(=O)Nc1sc(-c2ccc(F)cc2)cc1C(N)=O       SEM cells     cell viability           75.1
1  CC(C)=CCC/C(C)=C/CC/C(C)=C/CSc1ccccc1C(=O)O       SEM cells     cell viability           62.5
2  CC(C)(F)C[C@H](N[C@@H](c1ccc(-c2ccc([S+](C)(=O)[O-])cc2)cc1)C(F)(F)F)C(=O)NC1(C#N)CC1       SEM cells     cell viability            115
3  CC(C)N(C[C@H]1O[C@@H](n2cnc3c(N)ncnc32)[C@H](O)[C@@H]1O)[C@H]1C[C@@H](CCc2nc3cc(C(C)(C)C)ccc3[nH]2)C1       SEM cells     cell viability           47.6
4  N[S+](=O)([O-])c1cc2c(cc1Cl)NC(C(Cl)Cl)N[S+]2(=O)[O-] (stereo not given)       SEM cells     cell viability            142
5      O=C1\C=C/C=C2/[C@H]3CNC[C@H](C3)CN12       SEM cells     cell viability            126

Okay, here is my list. What is cell viability for each of these?
1. [O-]C(=O)C/1=N/C(=O)NC(=O)N1
2. COc1ccc(OC)c(-c2nnc3ccc(-c4ccc(OC)c(O[C@@H]5CCOC5)c4)nn23)c1
3. O=C(Nc1c[nH]nc1-c1nc2cc(CN3CCOCC3)ccc2[nH]1)NC1CC1
4. COc1ccc(C(CN(C)C)C2(O)CCCCC2)cc1 (stereo not given)
5. COc1cc2ncn(-c3cc(OCc4ccccc4[S+](C)(=O)[O-])c(C#N)s3)c2cc1OC

Response:
1. 104
2. 117
3. 4.09
4. 148
5. 106

State recorded cell viability for all listed molecules.
1. C=C1C(=O)[C@@]23C(CC[C@@H]1[C@H]2O)[C@@]12CO[C@]3(O)[C@@H](O)[C@@H]1C(C)(C)CC[C@@H]2O (stereo not given in full)
2. CCc1cc(C(N)=S)ccn1

Response:
[49.3, 100]

Hey, can you go through the list below and give me cell viability for every item?
1. CC1=C(/C=C/C(C)=C/C=C/C(C)=C\C(=O)O)C(C)(C)CCC1
2. COc1cc(Nc2c(C#N)cnc3cc(OCCCN4CCN(C)CC4)c(OC)cc23)c(Cl)cc1Cl

Response:
1: 41.6; 2: 17.5

I have 2 molecules here; please give me cell viability for each one.
1. Cc1cc(O)c2c(c1)C(=O)c1cccc(O)c1C2=O
2. CC(NC(C)(C)C)C(=O)c1cccc(Cl)c1 (stereo not given)

Response:
123
135
